- TESTED TARGET: 5-hydroxytryptamine receptor 1A (Rattus norvegicus, UniProt P19327)
- Sequence (P19327 whole entry): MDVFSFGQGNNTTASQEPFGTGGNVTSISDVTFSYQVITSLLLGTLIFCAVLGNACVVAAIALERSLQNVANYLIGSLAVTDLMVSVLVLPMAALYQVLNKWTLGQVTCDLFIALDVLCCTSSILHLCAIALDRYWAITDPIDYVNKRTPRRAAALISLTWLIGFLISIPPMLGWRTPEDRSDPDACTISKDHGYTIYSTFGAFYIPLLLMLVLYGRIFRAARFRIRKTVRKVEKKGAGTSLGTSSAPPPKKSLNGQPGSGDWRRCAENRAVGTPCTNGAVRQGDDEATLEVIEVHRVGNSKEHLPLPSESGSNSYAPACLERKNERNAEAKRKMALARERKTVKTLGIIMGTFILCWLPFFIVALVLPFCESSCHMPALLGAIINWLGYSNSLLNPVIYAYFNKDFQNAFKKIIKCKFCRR
MEASUREMENT KIND: IC50 (nM)

1. O=C1c2ccccc2OC=C(Cl)N1CCCCN1CCN(c2ncccn2)CC1
2. O=C1c2ccccc2OC=CN1CCCCN1CCN(c2ncccn2)CC1
// compare measured IC50 between 1 and 2 ; output the lower one Use the label to indicate which entry you chose.
1

These data points were gathered from ChEMBL document CHEMBL1134206.
